Assay: qHTS assay to identify small molecule agonists of the hypoxia (HIF-1) signaling pathway (AID 1224846); note: % is set by controls: 0 for no effect and ±100 for the full control effect
Conditions: HRE-bla ME-180 cells, beta-lactamase ratio, 17 h; series mostly up to 76.8 µM
Inconclusive results are not listed. Calls of active or inactive are those of the source. Calls come from the whole dose curve; as a rule, active = well fitted activation curve with a large enough effect in the signal ratio in the repeat runs (not every such curve was filed as active); inconclusive = weak or mixed curves; inactive = flat fitted curve, though single readings scatter; the % refers to the signal ratio.

compound: O=C(O)Cc1ccccc1Nc1c(Cl)cccc1Cl
activation: inactive

compound: CCN(CCN)c1cccc(C)c1
activation: inactive

compound: Cc1c(F)c(N2CCNC(C)C2)cc2c1c(=O)c(C(=O)O)cn2C1CC1 (stereo not given)
activation: inactive

compound: O=C(O)c1ccc2cc(C(=O)O)ccc2c1
activation: inactive

compound: CC(C)(C)CC(C)(C)c1ccc(Nc2ccc(C(C)(C)CC(C)(C)C)cc2)cc1
activation: 3.2% [at 7.01 µM] (inactive)

====

Experiment: qHTS RealTime-Glo MT Cell Viability Assay in HepG2 cells - 24 hour (AID 1224867); note: % is set by controls: 0 for no effect and ±100 for the full control effect; nearly all actives have a fitted effect of over 50% in size
Conditions: RealTime-Glo luminescence; series mostly up to 76.8 µM
Records with an inconclusive call do not appear. Activity calls are given as the source filed them. Calls follow the shape of the dose curve; as a rule, active = well fitted cell-killing curve with a large enough effect in the repeat runs; inconclusive = weak or mixed curves; inactive = flat fitted curve, though single readings scatter.

molecule: O=C(O)O
activity change, negative = cytotoxicity: 3.08% [at 6.97 µM] (inactive)

molecule: NC[C@H]1O[C@H](O[C@H]2[C@H](O[C@@H]3O[C@H](CO)[C@@H](O)[C@H]3O)C(O)[C@H](N)C[C@@H]2N)[C@H](N)[C@@H](O)[C@@H]1O (some centres undefined)
activity change, negative = cytotoxicity: -0.277% [at 6.97 µM] (inactive)

molecule: CC(C)Cn1cnc2c(N)nc3ccccc3c21
activity change, negative = cytotoxicity: 0.631% [at 15.8 µM] (inactive)

molecule: CC(C)(C)CC(C)(C)c1ccc(Nc2ccc(C(C)(C)CC(C)(C)C)cc2)cc1
activity change, negative = cytotoxicity: 0.0274% [at 6.97 µM] (inactive)

====

Experiment: qHTS assay to identify small molecule agonists of the sonic hedgehog signaling (Shh) pathway (AID 1259368);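 note: NIH/3T3-derived 3T3Gli1-Luc cells carrying a stable Gli1-driven firefly luciferase reporter; % is set by controls: 0 for no effect and ±100 for the full control effect; nearly all actives have a fitted effect of over 15% in size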
Details: NIH/3T3 Gli1-Luc reporter, luciferase, 24 h; series mostly up to 92.4 µM
Activity calls are given as the source filed them. Calls come from the whole dose curve.
reportedProperty: activity change

compound: CC(C)(C)NSc1nc2ccccc2s1
value: inactive

compound: [Cu+]
value: inactive

compound: Cc1cc(C(C#N)c2ccc(Cl)cc2)c(Cl)cc1NC(=O)c1cc(I)cc(I)c1O (centres undefined)
value: inactive

compound: O=[N+]([O-])c1ccc(F)c(Cl)c1
value: inactive

compound: C#C[C@]1(O)CC[C@H]2[C@@H]3[C@H](C)CC4=C(CCC(=O)C4)[C@H]3CC[C@@]21C
value: inactive

compound: CN1CCN2c3ccccc3Cc3ccccc3C2C1 (centres undefined)
value: inactive

compound: COc1ccc2cc1Oc1ccc(cc1)C[C@H]1c3c(cc4c(c3Oc3cc5c(cc3OC)CCN(C)[C@@H]5C2)OCO4)CCN1C
value: inactive

compound: O=C(c1ccc(O)c(O)c1)c1ccc(O)cc1O
value: inactive

compound: OC/C=C/CO
value: inactive

compound: O=C(O)CCN(C1(C(=O)NO)CCCC1)S(=O)(=O)c1ccc(Oc2ccc(F)cc2)cc1
value: inactive

compound: C=C(CC)C(=O)c1ccc(OCC(=O)O)c(Cl)c1Cl
value: inactive

compound: CC(CCc1ccccc1)NCC(O)c1ccc(O)c(C(N)=O)c1 (centres undefined)
value: inactive

compound: CC(C)OC(=O)C(O)(CC(=O)O)CC(=O)O
value: inactive

compound: CCCC(=O)OC(C)(C)Cc1ccccc1
value: inactive

compound: O=C1CCc2ccc(OCCCCN3CCN(c4cccc(Cl)c4Cl)CC3)cc2N1
value: inactive

compound: O=c1[nH]c2ccccc2n1CCCN1CCN(C(c2ccccc2)c2ccccc2)CC1
value: inactive

compound: CC(C)CCCCCOC(=O)CCS
value: inactive

compound: O=C1NC(=O)[C@@H]2CC=CC[C@H]12
value: inactive

compound: CN1CCN(Cc2cc(-c3ccc4[nH]c(=O)oc4c3)co2)[C@@H](c2ccc(F)cc2)C1
value: inactive

compound: CCN(CCN)c1cccc(C)c1
value: inactive

compound: C=CCCC(=O)/C=C/C1C(C)=CCCC1(C)C (centres undefined)
value: inactive

compound: O=S(=O)(O)c1ccccc1/C=C/c1ccc(-c2ccc(/C=C/c3ccccc3S(=O)(=O)O)cc2)cc1
value: inactive

compound: CN1CCCCC1CCN1c2ccccc2Sc2ccc(S(C)=O)cc21 (centres undefined)
value: inactive

====

Target: Progesterone receptor (Homo sapiens) (UniProt P06401)
Sequence (P06401 whole entry, looked up): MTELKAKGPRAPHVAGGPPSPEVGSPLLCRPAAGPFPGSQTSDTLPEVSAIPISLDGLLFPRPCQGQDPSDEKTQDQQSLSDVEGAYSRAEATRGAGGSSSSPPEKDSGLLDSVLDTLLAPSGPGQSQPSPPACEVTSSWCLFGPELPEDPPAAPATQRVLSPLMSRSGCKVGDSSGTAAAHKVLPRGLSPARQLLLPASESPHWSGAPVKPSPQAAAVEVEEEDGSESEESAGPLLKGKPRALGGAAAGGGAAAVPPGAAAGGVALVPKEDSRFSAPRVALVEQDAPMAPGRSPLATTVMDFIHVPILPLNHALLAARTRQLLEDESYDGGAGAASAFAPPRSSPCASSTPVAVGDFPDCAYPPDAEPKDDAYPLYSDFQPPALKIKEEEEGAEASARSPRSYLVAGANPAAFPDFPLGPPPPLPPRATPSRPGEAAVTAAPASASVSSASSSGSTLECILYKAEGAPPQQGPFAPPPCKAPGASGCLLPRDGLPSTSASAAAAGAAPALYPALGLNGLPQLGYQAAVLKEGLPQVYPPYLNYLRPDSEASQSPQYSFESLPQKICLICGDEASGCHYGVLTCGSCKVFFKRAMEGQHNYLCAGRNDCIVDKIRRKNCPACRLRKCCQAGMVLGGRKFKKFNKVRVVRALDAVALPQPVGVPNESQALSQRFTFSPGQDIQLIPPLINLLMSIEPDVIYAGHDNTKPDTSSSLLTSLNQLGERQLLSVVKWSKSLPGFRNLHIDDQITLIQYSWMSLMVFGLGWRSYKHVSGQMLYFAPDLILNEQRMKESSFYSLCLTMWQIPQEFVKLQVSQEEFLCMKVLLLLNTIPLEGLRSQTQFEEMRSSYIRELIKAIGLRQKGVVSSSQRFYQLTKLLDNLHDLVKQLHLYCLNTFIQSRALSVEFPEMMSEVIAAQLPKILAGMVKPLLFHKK
Experiment: qHTS assay to identify small molecule agonists of the progesterone receptor (PR) signaling pathway (AID 1346784); note: nearly all actives have a fitted effect of over 30% in size
Settings: PR-UAS-bla HEK293T, beta-lactamase FRET ratio, 16 h; series mostly up to 92.4 µM
Records with an inconclusive call do not appear. The source made the active and inactive calls. Calls follow the shape of the full dose curve.
Possible outcomes: Yes = active, No = inactive

molecule: C#CC1(O)CC[C@H]2[C@@H]3CCC4=CCCC[C@@H]4[C@H]3CC[C@@]21C (some centres not stated)
className: Yes

molecule: Oc1c(I)cc(Cl)c2cccnc12
className: No

molecule: Cc1cccc(C)c1NC(=O)c1ccc(N)cc1
className: No

molecule: O=C(O)c1ccc2cc(C(=O)O)ccc2c1
className: No

molecule: CCC(=O)C(=O)CC
className: No

molecule: O=C1C(c2[nH]c3ccc(S(=O)(=O)O)cc3c2O)=Nc2ccc(S(=O)(=O)O)cc21
className: No

molecule: COc1cc(/C=C/c2ccccc2)oc(=O)c1
className: No

molecule: COC(=O)C1=C(C)NC(C)=C(C(=O)OCCN2CCN(C(c3ccccc3)c3ccccc3)CC2)C1c1cccc([N+](=O)[O-])c1 (configuration not stated)
className: No

molecule: CC1(C)CCC[C@]2(C)[C@H]3CC(=O)O[C@]3(C)CC[C@@H]12
className: No

molecule: C#C[C@]1(O)CC[C@H]2[C@@H]3[C@H](C)CC4=C(CCC(=O)C4)[C@H]3CC[C@@]21C
className: Yes

molecule: O=C1OC2(c3ccc(O)cc3Oc3cc(O)ccc32)c2ccc(N=C=S)cc21
className: Yes

molecule: NC(=O)c1cccc([N+](=O)[O-])c1
className: No

molecule: O=C(Oc1ccccc1)Oc1ccccc1
className: No

molecule: CCCCN(CCCC)CC(O)c1cc(Cl)cc2c1-c1ccc(Cl)cc1/C2=C/c1ccc(Cl)cc1 (configuration not stated)
className: No

molecule: CCOC(=O)NNc1ccc(N(CC)CC(C)O)nn1 (configuration not stated)
className: No

molecule: CCn1c2ccccc2c2cc([N+](=O)[O-])ccc21
className: No

molecule: [Cu+]
className: No

molecule: O=C1c2ccccc2C(=O)N1SC1CCCCC1
className: No

molecule: C=CC(=O)OCCOC(=O)C=C
className: No

molecule: CCC(C)[O-].CCC(C)[O-].CCOC(=O)/C=C(/C)[O-].[Al+3]
className: No

molecule: Oc1ccccc1O
className: No

molecule: O=C(O)CN(CCN(CC(=O)O)CC(=O)O)CC(=O)O
className: Yes

molecule: CN(C)CCN1CCN(c2cccc(Cl)c2)C1=O
className: No

molecule: C=C(C)C(=O)OCCCCCCCCCC
className: No

molecule: CC(=O)OCC=C(C)C
className: No

molecule: NC(=S)NC(N)=S
className: No

molecule: Cc1cc(C(C)(C)C)cc(C)c1CC1=NCCN1
className: No

====

Assay: A CellTox Green Cytotoxicity Assay to monitor cytotoxicity in HEK293 cells - 24 hour (AID 1224875); note: nearly all actives have a fitted effect of over 45% in size
Conditions: CellTox Green fluorescence; series mostly up to 76.8 µM
Records with an inconclusive call do not appear. Calls of active or inactive are those of the source. Calls follow the shape of the dose curve; as a rule, active = well fitted activation curve with a large enough effect in the repeat runs; inconclusive = weak or mixed curves; inactive = flat fitted curve, though single readings scatter.
Possible outcomes: active, inactive

compound: O=C1C(c2[nH]c3ccc(S(=O)(=O)O)cc3c2O)=Nc2ccc(S(=O)(=O)O)cc21
className: inactive
--
compound: CCCCCCC1CCCC(=O)O1 (stereo unspecified)
className: inactive
--
compound: CN(C)C(=O)COC(=O)Cc1ccc(OC(=O)c2ccc(N=C(N)N)cc2)cc1
className: inactive
--
compound: CCC(CC)C(C)CCOC(C)=O (stereo unspecified)
className: inactive
--
compound: O=C(O)c1cccc(C(F)(F)F)c1
className: inactive
--
compound: Nc1ccc(C(=O)O)c(O)c1
className: inactive
--
compound: O=c1[nH]c2ccccc2n1CCCN1CCN(C(c2ccccc2)c2ccccc2)CC1
className: inactive
--
compound: CN(C)Cc1ccccc1O
className: inactive
--
compound: CN(C)Cc1cc(C(C)(C)C)c(O)c(C(C)(C)C)c1
className: inactive
--
compound: O=C(O)Cc1ccc2c(c1)C(=O)c1ccccc1CO2
className: inactive
--
compound: CC(=O)CC(=O)Nc1ccc(S(=O)(=O)O)cc1
className: inactive
--
compound: OC/C=C/CO
className: inactive
--
compound: Fc1ccc(C(c2ccc(F)cc2)N2CCNCC2)cc1
className: inactive
--
compound: O=[N+]([O-])c1cccc(C(F)(F)F)c1
className: inactive
--
compound: Cc1cccc2cccnc12
className: inactive
--
compound: Cc1ccc(-c2ccccc2)cc1
className: inactive
--
compound: Nc1nc(-c2ccccc2)cs1
className: inactive
--
compound: CCCCCCCCCCC[C@@H](C[C@@H]1OC(=O)[C@H]1CCCCCC)OC(=O)[C@H](CC(C)C)NC=O
className: inactive
--
compound: [Cu+]
className: inactive
--
compound: CCN1C(=O)c2ccccc2C1Nc1ccc(OCCN2CCCCC2)cc1 (stereo unspecified)
className: inactive
--
compound: c1ccc(C(O[C@@H]2CCCN(CCc3ccc4c(c3)OCO4)C2)c2ccccc2)cc1
className: inactive
--
compound: OC[C@H]1O[C@H](O[C@H]2O[C@H](CO)[C@@H](O)[C@H](O)[C@H]2O)[C@H](O)[C@@H](O)[C@@H]1O
className: inactive
--
compound: O=S(=O)(O)c1ccc(N=Nc2c(O)ccc3ccccc23)cc1
className: inactive
--
compound: O=C(O)c1cc(=O)c2ccccc2o1
className: inactive
--
compound: C=CC(C)(CCC=C(C)C)OC=O (stereo unspecified)
className: inactive
--
compound: CCCCCCCCCCCCOCCOCCOCCOCCOCCOCCOCCOCCOCCO
className: active

Data provenance is PubChem BioAssay (Tox21).
